Entries and their pIC50
System: GP2d cells (KRAS G12D)
Procedure text: Cell-based pERK HTRF assay in GP2d cell (Biological Example 2)
Condition label: GP2d, GP2d (KRAS G12D) cells, pERK HTRF
pIC50: −log10 of the molar value.
Reported property: pIC50

{"columns": ["Compound", "Reported property", "Result"],
 "data": [
  ["CCC(=O)N1C[C@H](C)N(c2nc(OC[C@@]34CCCN3C[C@H](F)C4)nc3c(F)c(-c4ccc(F)c5sc(N)c(C#N)c45)c(C(F)(F)F)cc23)C[C@H]1C (atropisomer, axis not shown) [Compound 99]", "pIC50", "> 7.00"],
  ["N#Cc1c(N)sc2c(F)ccc(-c3c(C(F)(F)F)cc4c(N5C[C@H]6C[C@@H]5CO6)nc(OC[C@@]56CCCN5C[C@H](F)C6)nc4c3F)c12 (single isomer, unassigned) [Compound 287]", "pIC50", "> 7.00"],
  ["CCC(=O)N1CC[C@@H](N(CC)c2nc(OC[C@@]34CCCN3C[C@H](F)C4)nc3c(F)c(-c4ccc(F)c5sc(N)c(C#N)c45)c(C(F)(F)F)cc23)[C@H]1C [Compound 405]", "pIC50", "> 7.00"],
  ["N#Cc1c(N)sc2c(F)ccc(-c3c(C(F)(F)F)cc4c(N5CCCCCC5)nc(OC[C@@]56CCCN5C[C@H](F)C6)nc4c3F)c12 [Compound 305]", "pIC50", "> 7.00"],
  ["CCN(c1nc(OC[C@@]23CCCN2C[C@H](F)C3)nc2c(F)c(-c3ccc(F)c4sc(N)c(C#N)c34)c(C(F)(F)F)cc12)[C@@H]1C[C@@H](C)N(C(=O)N(C)C)C1 (atropisomer, axis not shown) [Compound 525]", "pIC50", "> 7.00"],
  ["CCN(c1nc(OC[C@@]23CCCN2C[C@H](F)C3)nc2c(F)c(-c3ccc(F)c4sc(N)c(C#N)c34)c(C(F)(F)F)cc12)[C@H]1C[C@H](C)N(C(=O)C2CC2)C1 [Compound 470]", "pIC50", "> 7.00"],
  ["N#Cc1c(N)sc2c(F)ccc(-c3c(C(F)(F)F)cc4c(N5CCCCC5)nc(OC[C@@]56CCCN5C[C@H](F)C6)nc4c3F)c12 [Compound 203]", "pIC50", "> 7.00"],
  ["N#Cc1nnn2c1CN(c1nc(OC[C@@]34CCCN3C[C@H](F)C4)nc3c(F)c(-c4ccc(F)c5sc(N)c(C#N)c45)c(C(F)(F)F)cc13)CC2 [Compound 486]", "pIC50", "> 7.00"],
  ["CCN(c1nc(OC[C@@]23CCCN2C[C@H](F)C3)nc2c(F)c(-c3ccc(F)c4sc(N)c(C#N)c34)c(C(F)(F)F)cc12)[C@H]1C[C@H](C)N(C(=O)COC)C1 (atropisomer, axis not shown) [Compound 538]", "pIC50", "> 7.00"],
  ["CCN(c1nc(OC[C@@]23CCCN2C[C@H](F)C3)nc2c(F)c(-c3ccc(F)c4sc(N)c(C#N)c34)c(C(F)(F)F)cc12)[C@H]1C[C@@H]2COC(=O)N2C1 (atropisomer, axis not shown) [Compound 519]", "pIC50", "> 7.00"],
  ["CC(=O)N1CC[C@H](N(C)c2nc(OC[C@@]34CCCN3C[C@H](F)C4)nc3c(F)c(-c4ccc(F)c5sc(N)c(C#N)c45)c(C(F)(F)F)cc23)[C@H]1C [Compound 191]", "pIC50", "> 7.00"],
  ["CCN(c1nc(OC[C@@]23CCCN2C[C@H](F)C3)nc2c(F)c(-c3ccc(F)c4sc(N)c(C#N)c34)c(C(F)(F)F)cc12)[C@H]1CCN(C(=O)C2CC2)C1 [Compound 331]", "pIC50", "> 7.00"],
  ["C[C@@H]1[C@H](N(C)c2nc(OC[C@@]34CCCN3C[C@H](F)C4)nc3c(F)c(-c4ccc(F)c5sc(N)c(C#N)c45)c(Cl)cc23)CCN1C(=O)C(C)(F)F [Compound 420]", "pIC50", "6.00 to 7.00"],
  ["CC(=O)N1C[C@H]2CCN(c3nc(OC[C@@]45CCCN4C[C@H](F)C5)nc4c(F)c(-c5ccc(F)c6sc(N)c(C#N)c56)c(C(F)(F)F)cc34)[C@H]2C1 [Compound 210]", "pIC50", "> 7.00"],
  ["CCN(c1nc(OC[C@@]23CCCN2C[C@H](F)C3)nc2c(F)c(-c3ccc(F)c4sc(N)c(C#N)c34)c(C(F)(F)F)cc12)[C@H]1CCS(=O)(=O)C1 [Compound 350]", "pIC50", "> 7.00"],
  ["CN(c1nc(OC[C@@]23CCCN2C[C@H](F)C3)nc2c(F)c(-c3ccc(F)c4sc(N)c(C#N)c34)c(C(F)(F)F)cc12)[C@@H]1CCS(=O)(=O)C1 [Compound 93]", "pIC50", "> 7.00"],
  ["CN(c1nc(OC[C@@]23CCCN2C[C@H](F)C3)nc2c(F)c(-c3ccc(F)c4sc(N)c(C#N)c34)c(C(F)(F)F)cc12)[C@@H]1C[C@H]2COC(=O)N2C1 [Compound 476]", "pIC50", "> 7.00"],
  ["CC(=O)N1CC[C@H](N(C)c2nc(OC[C@@H]3CC4(CC4)CN3C)nc3c(F)c(-c4ccc(F)c5sc(N)c(C#N)c45)c(C(F)(F)F)cc23)[C@@H]1C [Compound 227]", "pIC50", "6.00 to 7.00"],
  ["CC(=O)N1C[C@@H](N(C)c2nc(OC[C@@]34CCCN3C[C@H](F)C4)nc3c(F)c(-c4ccc(F)c5sc(N)c(C#N)c45)c(C(F)(F)F)cc23)C[C@@H]1CF [Compound 454]", "pIC50", "> 7.00"],
  ["CCC(=O)N1C[C@@H](N(CC)c2nc(OC[C@@]34CCCN3C[C@H](F)C4)nc3c(F)c(-c4ccc(F)c5sc(N)c(C#N)c45)c(C(F)(F)F)cc23)C[C@@H]1C [Compound 464]", "pIC50", "> 7.00"]
]}
